Recorded values, source PubChem BioAssay (NCI).

Test system: TK-10 renal
protocol: NCI tumour cell line growth inhibition, 48 h
The reader will find reported TGI values listed item by item below.

Known results for compounds:
>  <compound>
CO[C@](C(=O)OC[C@H]1[C@@H](COC(C)=O)[C@@H]2O[C@H]1c1cc3c(cc12)OCO3)(c1ccccc1)C(F)(F)F

>  <result>
> 100 µM

$$$$
>  <compound>
Cc1nc(-c2nc(C)c(C(=O)NNC(=O)C[n+]3ccccc3)s2)sc1C(=O)NNC(=O)C[n+]1ccccc1

>  <result>
> 100 µM

$$$$
>  <compound>
CCOC(=O)CCCSCCCC(=O)CCCSCCCC(=O)OCC

>  <result>
> 100 µM

$$$$
>  <compound>
O=[N+]([O-])c1ccc2nc(Nc3ccccc3)c(Nc3ccccc3)nc2c1

>  <result>
6.84 µM

$$$$
>  <compound>
O=C1c2sc(-c3ccc(Cl)cc3)cc2-n2cccc21

>  <result>
> 100 µM

$$$$
>  <compound>
O=C(Nc1nn2c(-c3cc(C(F)(F)F)cc(C(F)(F)F)c3)nnc2s1)C1CCCC1

>  <result>
> 100 µM

$$$$

What value of TGI has been recorded for this entry: CCOc1ccc(NC2=CC(=O)C(=O)c3ccccc32)cc1
21.6 µM

What value of TGI has been recorded for this entry: CC(N)/C(N)=N/O (stereo unspecified)
> 100 µM

What value of TGI has been recorded for this entry: C(=C/CCCN1O[C@@H](CCCCCCCCc2cccnc2)[C@H]2CCC[C@H]21)/CCCCCCCCCc1cccnc1
38.4 µM
